experiment: Solubility of the compound in water; type: physicochemical
experimental endpoint: solubility (mg/mL)
Numbers only, in mg/mL.

Data request: # get_value(readout='solubility', item= CO/N=C1\CCN(c2cc3c(cc2F)c(=O)c(C(=O)O)cn3C2CC2)CC1N.CS(=O)(=O)O (stereo unspecified) )
Data returned: 22.5

Hello, the source for this data is ChEMBL document CHEMBL4130505, in case you need it.
